Values from ChEMBL document CHEMBL1149247

Overview of reported Activity across a group of molecules:
- System: LNCaP
- experiment.summary: Cell cycle arrest in human LNCaP cells by accumulation at G2M phase at 10 uM after 72 hrs by FACS flow cytometry
- Type: functional

molecule: COC1(c2cc(F)cc(OCc3cc(-c4ccccc4)n(-c4ccc(C)c(C)c4)n3)c2)CCOCC1
unit.spec: %
Activity: 15

molecule: COC1(c2cc(F)cc(OCc3cc(-c4ccccc4)n(-c4ccc(Cl)c(Cl)c4)n3)c2)CCOCC1
unit.spec: %
Activity: 15.5

molecule: COC1(c2cc(F)cc(OCc3cc(-c4ccccc4)n(-c4ccc(OC(F)(F)F)cc4)n3)c2)CCOCC1
unit.spec: %
Activity: 11

molecule: COC1(c2cc(F)cc(OCc3cc(-c4ccccc4)n(-c4ccc(S(C)(=O)=O)cc4)n3)c2)CCOCC1
unit.spec: %
Activity: 14.7

molecule: COC1(c2cc(F)cc(OCc3cc(-c4ccccc4)n(-c4ccc(C)cc4)n3)c2)CCOCC1
unit.spec: %
Activity: 14.6

molecule: COC1(c2cc(F)cc(OCc3cc(-c4ccccc4)n(-c4ccccc4)n3)c2)CCOCC1
unit.spec: %
Activity: 13.9

molecule: COC1(c2cc(F)cc(OCc3cc(-c4ccccc4)n(-c4ccc(S(N)(=O)=O)cc4)n3)c2)CCOCC1
unit.spec: %
Activity: 8.2

molecule: Cc1ccc(-c2cc(C(F)(F)F)nn2-c2ccc(S(N)(=O)=O)cc2)cc1
unit.spec: %
Activity: 11.3
